Source listed as patent US20230097157A1.

Molecular target: Factor XIa (Homo sapiens, UniProt P03951)
Sequence (P03951 388-625 limits assumed): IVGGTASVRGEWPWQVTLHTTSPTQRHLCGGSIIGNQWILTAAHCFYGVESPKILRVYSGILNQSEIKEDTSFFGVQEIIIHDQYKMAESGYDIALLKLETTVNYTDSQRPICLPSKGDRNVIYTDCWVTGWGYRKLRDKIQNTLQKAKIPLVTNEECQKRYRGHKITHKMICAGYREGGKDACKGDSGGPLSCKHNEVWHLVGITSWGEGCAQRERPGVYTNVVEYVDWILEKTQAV
Sequence (P03951 19-387 partner limits assumed): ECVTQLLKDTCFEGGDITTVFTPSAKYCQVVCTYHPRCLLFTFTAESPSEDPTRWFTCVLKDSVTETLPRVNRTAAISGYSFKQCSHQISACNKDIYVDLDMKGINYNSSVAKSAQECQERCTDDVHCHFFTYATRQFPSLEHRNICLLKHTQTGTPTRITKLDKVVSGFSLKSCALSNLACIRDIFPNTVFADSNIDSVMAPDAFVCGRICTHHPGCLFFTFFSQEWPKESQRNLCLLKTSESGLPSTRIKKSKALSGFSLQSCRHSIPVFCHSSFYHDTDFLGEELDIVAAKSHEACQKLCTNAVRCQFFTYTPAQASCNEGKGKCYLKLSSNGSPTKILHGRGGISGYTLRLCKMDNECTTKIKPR
Experiment: Factor XIa inhibition assay (FLINT) utilizing a fluorophore-quencher pair peptide substrate 5Fam-[…]-K5Tamra
Assay type: biochemical
Conditions: kinetic (KIN) reads; values in nM; read-out: FXIa KIN Inh IC50
The entries below come with measured IC50 values attached.
# unit: nM | format: bare number

Example results:
C[C@H]1C[C@@H](c2ncc(-c3ccc4c(=O)cc[nH]c4c3)[nH]2)n2c1nc(-c1c(-n3cnnn3)ccc(Cl)c1F)cc2=O (relative stereo) [Example 102]	18.2
Cc1cc(-c2cnc([C@@H]3C[C@@H](C)c4cc(-c5c(-n6cnnn6)ccc(Cl)c5F)cc(=O)n43)[nH]2)ccn1 (stereo in doubt) [Example 41]	346

The record that follows has no IC50 shown yet.
Q: I have this compound here, C[C@H]1C[C@@H](c2ncc(-c3cnc(N)s3)[nH]2)n2c1cc(-c1c(-n3cnnn3)ccc(Cl)c1F)cc2=O [Example 23] , and I need its recorded IC50.
A: 5

###

Target: Factor XIa (Homo sapiens)
Assay: Factor XIa inhibition assay (FLINT) utilizing a fluorophore-quencher pair peptide substrate 5Fam-[…]-K5Tamra
Format: biochemical
Details: kinetic (KIN) reads; unit μM; read-out: FXIa KIN Inh IC50
// assign MET if IC50 falls strictly below 2 µM, else NOT MET (ties count as NOT MET)

// below: answered molecules
C[C@@H]1C[C@H](c2ncc(-c3ccc(N)nc3F)[nH]2)n2c1cc(-c1c(-n3cnnn3)ccc(Cl)c1F)cc2=O (stereo in doubt)	MET
COc1cc(-c2cnc([C@@H]3C[C@H](C)c4nc(-c5c(-n6cnnn6)ccc(Cl)c5F)cc(=O)n43)[nH]2)ccn1 (stereo in doubt)	NOT MET

Q: # check: IC50 < 2 µM for C[C@H]1C[C@@H](c2ncc(-c3cnc(N)c(F)c3)[nH]2)n2c1cc(-c1c(-n3cnnn3)ccc(Cl)c1F)cc2=O (relative stereo)
A: NOT MET

Q: # check: IC50 < 2 µM for COC(=O)Nc1ccc(-c2cnc([C@H]3C[C@@H](C)c4nc(-c5c(-n6cnnn6)ccc(Cl)c5F)cc(=O)n43)[nH]2)cn1 (stereo in doubt)
A: NOT MET

Q: # check: IC50 < 2 µM for `Cc1nc(N)sc1-c1cnc([C@H]2CC3(CC3)c3nc(-c4c(-n5cnnn5)ccc(Cl)c4F)cc(=O)n32)[nH]1`
A: NOT MET

Q: # check: IC50 < 2 µM for Cc1nc(N)c(F)cc1-c1cnc([C@@H]2C[C@H](C)c3nc(-c4c(-n5cnnn5)ccc(Cl)c4F)cc(=O)n32)[nH]1 (stereo in doubt)
A: NOT MET

Q: # check: IC50 < 2 µM for C[C@H]1C[C@@H](c2ncc(-c3ccc(N)nc3F)[nH]2)n2c1cc(-c1c(-n3cnnn3)ccc(Cl)c1F)cc2=O (stereo in doubt)
A: NOT MET

###

Target: Factor XIa (Homo sapiens, UniProt P03951)
Experiment: Factor XIa inhibition assay (FLINT) utilizing a fluorophore-quencher pair peptide substrate 5Fam-[…]-K5Tamra
Format: biochemical
Details: kinetic (KIN) reads; values in nM; read-out: FXIa KIN Inh IC50
// assign Y if IC50 falls strictly below 8 nM, else N (ties count as N)

COC(=O)Nc1ccc(-c2cnc([C@@H]3C[C@@H](OC)c4cc(-c5c(-n6cnnn6)ccc(Cl)c5F)cc(=O)n43)[nH]2)cc1	Y
C[C@H]1C[C@@H](c2ncc(-c3ccnc(N)n3)[nH]2)n2c1cc(-c1c(-n3cnnn3)ccc(Cl)c1F)cc2=O	N
C[C@@H]1C[C@H](c2cnc(-c3ccc(N)nc3F)[nH]2)n2c1cc(-c1c(-n3cnnn3)ccc(Cl)c1F)cc2=O (stereo in doubt)	Y
C[C@H]1C[C@H](c2ncc(-c3ncc(N)nc3C3CC3)[nH]2)n2c1nc(-c1c(-n3cnnn3)ccc(Cl)c1F)cc2=O (relative stereo)	N
C[C@@H]1C[C@@H](c2ncc(-c3ccnc(CO)c3F)[nH]2)n2c1cc(-c1c(-n3cnnn3)ccc(Cl)c1F)cc2=O (relative stereo)	N
C[C@H]1C[C@@H](c2ncc(-c3ccc(N)nc3F)[nH]2)n2c1cc(-c1cc(Cl)ccc1-n1cnnn1)cc2=O	Y
Cc1nc(N)sc1-c1cnc([C@@H]2C[C@H](C)c3cc(-c4c(-n5cnnn5)ccc(Cl)c4F)cc(=O)n32)[nH]1	N
COc1nccc(-c2cnc([C@@H]3C[C@H](C)c4nc(-c5c(-n6cnnn6)ccc(Cl)c5F)cc(=O)n43)[nH]2)n1 (relative stereo)	N
Nc1ncc(-c2cnc([C@@H]3CC4(CC4)c4cc(-c5c(-n6cnnn6)ccc(Cl)c5F)cc(=O)n43)[nH]2)s1	N
[2H]C([2H])([2H])OC(=O)Nc1ccc(-c2cnc(C3CC4(CC4)c4nc(-c5c(-n6cnnn6)ccc(Cl)c5F)cc(=O)n43)[nH]2)cc1 (single isomer, unassigned) [Example 72]	Y

Now let's try a different one.
Q: # check: IC50 < 8 nM for C[C@H]1C[C@@H](c2ncc(-c3ccc(N)nc3F)[nH]2)n2c1nc(-c1c(-n3cnnn3)ccc(Cl)c1F)cc2=O (stereo in doubt)
A: Y

###

Target: human plasma kallikrein (Homo sapiens, UniProt P03952)
Sequence (P03952 391-638 limits assumed): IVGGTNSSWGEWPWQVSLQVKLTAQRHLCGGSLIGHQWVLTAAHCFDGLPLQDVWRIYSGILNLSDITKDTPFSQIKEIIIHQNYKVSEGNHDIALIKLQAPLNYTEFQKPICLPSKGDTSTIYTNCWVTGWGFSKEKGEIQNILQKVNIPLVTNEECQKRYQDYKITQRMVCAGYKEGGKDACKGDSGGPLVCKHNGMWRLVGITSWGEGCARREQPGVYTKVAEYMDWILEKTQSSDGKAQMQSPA
Sequence (P03952 20-390 partner limits assumed): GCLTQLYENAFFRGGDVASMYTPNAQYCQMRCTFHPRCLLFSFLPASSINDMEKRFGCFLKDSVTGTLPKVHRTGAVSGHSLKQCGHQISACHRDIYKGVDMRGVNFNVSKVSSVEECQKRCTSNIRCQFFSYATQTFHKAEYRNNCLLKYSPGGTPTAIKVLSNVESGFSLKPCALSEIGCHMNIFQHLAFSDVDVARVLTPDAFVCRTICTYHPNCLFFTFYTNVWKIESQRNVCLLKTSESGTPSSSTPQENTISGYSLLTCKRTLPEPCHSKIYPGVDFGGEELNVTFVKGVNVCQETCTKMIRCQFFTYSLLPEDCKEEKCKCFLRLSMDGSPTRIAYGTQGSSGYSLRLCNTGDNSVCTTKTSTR
Assay: Kallikrein inhibition assay (FLINT) utilizing a quenched AMC peptide substrate Z-Gly-Pro-Arg-AMC
Type: biochemical
Details: kinetic (KIN) reads; unit μM; read-out: Kallikrein KIN Inh IC50
Measurement Label: IC50

Example results:
C[C@@H]1C[C@H](c2ncc(-c3ccc(N)nc3F)[nH]2)n2c1cc(-c1c(-n3cnnn3)ccc(Cl)c1F)cc2=O (stereo in doubt) [Example 56]	> 10 µM
C[C@H]1C[C@H](c2ncc(-c3ccc(NC(=O)C4CC4)nc3)[nH]2)n2c1nc(-c1c(-n3cnnn3)ccc(Cl)c1F)cc2=O (stereo in doubt) [Example 121]	4.8 µM
Cc1nc(N)c(F)cc1-c1cnc([C@@H]2C[C@H](C)c3nc(-c4c(-n5cnnn5)ccc(Cl)c4F)cc(=O)n32)[nH]1 (stereo in doubt) [Example 130]	> 10 µM

Q: I have this compound here, COC(=O)Nc1ccc(-c2cnc([C@H]3C[C@H](C)c4nc(-c5c(-n6cnnn6)ccc(Cl)c5F)cc(=O)n43)[nH]2)cn1 (stereo in doubt) [Example 115] , and I need its recorded IC50.
A: 6 µM

Q: I have this compound here, C[C@@H]1C[C@@H](c2ncc(-c3ccc4c(=O)cc[nH]c4c3)[nH]2)n2c1nc(-c1c(-n3cnnn3)ccc(Cl)c1F)cc2=O (relative stereo) [Example 101] , and I need its recorded IC50.
A: 1.3 µM

###

Target: Factor XIa (Homo sapiens, UniProt P03951)
Assay: Factor XIa inhibition assay (FLINT) utilizing a fluorophore-quencher pair peptide substrate 5Fam-[…]-K5Tamra
Format: biochemical
Conditions: kinetic (KIN) reads; values in nM; read-out: FXIa KIN Inh IC50
Measurement Label: IC50 (nM)
# unit: nM | format: bare number

Cc1c(-c2cnc([C@H]3C[C@H](C)c4cc(-c5c(-n6cnnn6)ccc(Cl)c5F)cc(=O)n43)[nH]2)ccnc1C#N (relative stereo)	250

Q: I have this compound here, `Nc1ccc(-c2cnc([C@@H]3CC4(CC4)c4cc(-c5c(-n6cnnn6)ccc(Cl)c5F)cc(=O)n43)[nH]2)c(F)n1` , and I need its recorded IC50.
A: 0.6

Q: I have this compound here, COc1nc(N)cnc1-c1cnc([C@@H]2C[C@H](C)c3nc(-c4c(-n5cnnn5)ccc(Cl)c4F)cc(=O)n32)[nH]1 (relative stereo) , and I need its recorded IC50.
A: 5.7

Q: I have this compound here, COC(=O)Nc1ccc(-c2cnc([C@@H]3C[C@@H](C)c4nc(-c5c(-n6cnnn6)ccc(Cl)c5F)cc(=O)n43)[nH]2)cc1 (stereo in doubt) , and I need its recorded IC50.
A: 0.3

Q: I have this compound here, `CNC(=O)c1ccc(-c2cnc([C@@H]3C[C@H](C)c4cc(-c5c(-n6cnnn6)ccc(Cl)c5F)cc(=O)n43)[nH]2)cn1` , and I need its recorded IC50.
A: 63.7

Q: I have this compound here, `C[C@H]1C[C@@H](c2ncc(-c3ccc(=O)[nH]c3)[nH]2)n2c1cc(-c1c(-n3cnnn3)ccc(Cl)c1F)cc2=O` , and I need its recorded IC50.
A: 78.1

###

Molecular target: Factor XIa (Homo sapiens)
Test: Factor XIa inhibition assay (FLINT) utilizing a fluorophore-quencher pair peptide substrate 5Fam-[…]-K5Tamra
Format: biochemical
Conditions: kinetic (KIN) reads; values in nM; read-out: FXIa KIN Inh IC50
Excerpt: Biological Example 1: Factor XIa Inhibition Assay Utilizing a Fluorophore-Quencher Pair Peptide Substrate A fluorescence intensity (FLINT) based assay was used to monitor inhibition of Factor XIa. The peptide substrate, 5Fam-[…]-K5Tamra (purchased from New England Peptide) was chosen based on the FXI sequence. […] The peptide substrate was designed with a fluorophore-quencher pair, where the fluorescence is quenched until FXIa cleaves the 8-mer peptide after the Arg residue. […]
Measurement Label: IC50 (nM)
# unit: nM | format: bare number

Example results:
C[C@H]1C[C@@H](c2ncc(-c3ccc(NS(C)(=O)=O)cc3)[nH]2)n2c1cc(-c1c(-n3cnnn3)ccc(Cl)c1F)cc2=O	2.2
C[C@H]1CC(c2ncc(-c3cnnn3C)[nH]2)n2c1nc(-c1c(-n3cnnn3)ccc(Cl)c1F)cc2=O (stereo in doubt)	566

The record that follows has no IC50 shown yet.
Q: I have this compound here, Cc1nc(N)c(F)cc1-c1cnc([C@H]2C[C@@H](C)c3nc(-c4c(-n5cnnn5)ccc(Cl)c4F)cc(=O)n32)[nH]1 (stereo in doubt) , and I need its recorded IC50.
A: 283
